# target system: Tryptase purified from the human lungs
# Construct: Tryptase was purified from the human lungs in accordance with the method of T. J. Smithetal. described in J. Biol. Chem., 259, 11046 (1984)
# test protocol: Tryptase inhibitory activity (Boc-Phe-Ser-Arg-MCA fluorescence)
# Format: biochemical
# test settings: human lung tryptase, pH 7.5, 37° C., 5 minutes incubation, substrate Boc-Phe-Ser-Arg-MCA
Structures can show the parent of a compound that is named as a salt.
quantity: IC50 (nM)

For orientation, consider the following solved cases.
# compound, target system, quantity, experimental value
measured = [
    ("C=CCN(CC(=O)OCC)C(=O)/C(C)=C/c1ccc(C(=O)Oc2ccc(NC(=N)N)cc2)cc1 [Acetate of compound 13]", "Tryptase purified from the human lungs", "IC50", 5),
    ("CCOC(=O)CN(C(=O)c1ccc(C(=O)Oc2ccc(NC(=N)N)cc2)cc1)c1ccccc1 [Methanesulfonate of compound 14]", "Tryptase purified from the human lungs", "IC50", 11.2),
    ("CCCCCCN(CC(=O)OCC)C(=O)/C(C)=C/c1ccc(C(=O)Oc2ccc(C(=N)N)cc2)cc1 [Acetate of compound 22]", "Tryptase purified from the human lungs", "IC50", 0.24),
    ("CCOC(=O)CCN(CCCOC)C(=O)/C(C)=C/c1ccc(C(=O)Oc2ccc(C(=N)N)cc2)cc1 [Hydrochloride of compound 25]", "Tryptase purified from the human lungs", "IC50", 1.38),
    ("N=C(N)c1ccc(OC(=O)c2ccc(/C=C/C(=O)N3CCN(Cc4ccccc4)CC3)cc2)cc1 [Hydrochloride of compound 19-2]", "Tryptase purified from the human lungs", "IC50", 0.21),
]

(I) C=CCN(CC(=O)O)C(=O)/C(C)=C/c1ccc(C(=O)Oc2ccc(C(=N)N)cc2)cc1 [Methanesulfonate of compound 17]
(II) N=C(N)Nc1ccc(C(=O)Oc2ccc(CC(=O)O)cc2)cc1 [Methanesulfonate of compound 3]
Lab note: check whether I or II has the lower measured IC50. Give the chosen item's label as your response. I
(I: 12.6 nM, II: 52.9 nM)

(I) C=CCN(CC(=O)OCC)C(=O)/C(C)=C/c1ccc(C(=O)Oc2ccc(C(=N)N)cc2C(=O)OC)cc1 [Acetate of compound 23]
(II) N=C(N)Nc1ccc(OC(=O)c2cccc(S(N)(=O)=O)c2)cc1 [Methanesulfonate of compound 15]
Lab note: check whether I or II has the lower measured IC50. Give the chosen item's label as your response. I
(I: 0.46 nM, II: 192 nM)

----------
# target system: Tryptase purified from the human lungs
# Construct: Tryptase was purified from the human lungs in accordance with the method of T. J. Smithetal. described in J. Biol. Chem., 259, 11046 (1984)
# test protocol: Tryptase inhibitory activity (Boc-Phe-Ser-Arg-MCA fluorescence)
# test settings: human lung tryptase, pH 7.5, 37° C., 5 minutes incubation, substrate Boc-Phe-Ser-Arg-MCA
# Procedure: Tryptase was purified from the human lungs in accordance with the method of T. J. Smithetal. described in J. Biol. Chem., 259, 11046 (1984). The enzyme purified in the concentration of 25.7 U/ml was diluted 10 times with 100 mM Tris/hydrochloride buffer (pH 7.5) at use. […] To the reaction mixture was added 20 mM Boc-Phe-Ser-Arg-MCA (2.5 μl), and elevation in fluorescence for a minute was determined at Ex=370 nm, Em=460 nm. […]
quantity: IC50 (nM)

For orientation, consider the following solved cases.
# compound, target system, unit of measure, experimental value
data = [
    ("CCOC(=O)c1ccc(OC(=O)CCCCCNC(=N)N)cc1 [Methanesulfonate of compound 1]", "Tryptase purified from the human lungs", "nM", 30),
    ("C=CCN(CC(=O)OCC)C(=O)/C(C)=C/c1ccc(C(=O)Oc2ccc(C(=N)N)cc2)cc1 [Methanesulfonate of compound 16]", "Tryptase purified from the human lungs", "nM", 1.4),
]

(A) CCOC(=O)CC(CC(=O)OCC)N(C(=O)/C(C)=C/c1ccc(C(=O)Oc2ccc(C(=N)N)cc2)cc1)C1CCCCC1 [Acetate of compound 24]
(B) CN(C)C(=O)COC(=O)Cc1ccc(OC(=O)c2ccc(NC(=N)N)cc2)cc1 [Methanesulfonate of compound 2]
(C) C#CCN(CC(=O)OCC)C(=O)/C(C)=C/c1ccc(C(=O)Oc2ccc(C(=N)N)cc2)cc1 [Acetate of compound 18]
Hey, quick one: sort these by IC50, top value first please. Write the labels, ordered according to the request. B, C, A

Data origin, for the record: patent US6388122B1
